Data origin, for the record: paper PMC12040169

- protocol.notes: in vitro
- condition.label: human, hela cells, % viability

{"compound": "O=C(NC1CCN(Cc2cc(F)cc(F)c2)CC1)c1cn2ccsc2n1", "result.units": "%", "viability at 28.5 h, 10 µM": 80}
{"compound": "Cc1nc(N2CCCCC2)ncc1C(=O)NCCc1cc[nH]n1", "result.units": "%", "viability at 28.5 h, 10 µM": 113}
{"compound": "O=C(CN1CCOCC1)Nc1ccc(S(=O)(=O)N2CCCC2)cc1", "result.units": "%", "viability at 28.5 h, 10 µM": 103}
{"compound": "CCN1CCN(C(=O)Cc2ccc(N(C)C)cc2)CC1", "result.units": "%", "viability at 28.5 h, 10 µM": 82.2}
{"compound": "COc1ccc(Br)cc1CN1CCN(Cc2cccc([N+](=O)[O-])c2)CC1", "result.units": "%", "viability at 28.5 h, 10 µM": 91.6}
{"compound": "CCCN(CC(=O)NCc1ccco1)Cc1nnc(-c2ccco2)o1", "result.units": "%", "viability at 28.5 h, 10 µM": 111}
{"compound": "CCCNc1nc(-c2ccc(SC)cc2)cn2ccnc12", "result.units": "%", "viability at 28.5 h, 10 µM": 95.5}
{"compound": "Cc1cc(C)n(CCCC(=O)N2CCC3(CCCO3)CC2)n1", "result.units": "%", "viability at 28.5 h, 10 µM": 102}
{"compound": "O=C(Nc1c(F)cc(F)cc1OC1CCNCC1)c1ccccn1 [CBK050274T]", "result.units": "%", "viability at 28.5 h, 10 µM": 94.8}
{"compound": "CCC(C)CC(=O)NS(=O)(=O)c1cc(C#N)ccc1C (stereo not shown)", "result.units": "%", "viability at 28.5 h, 10 µM": 88.1}
{"compound": "FC(F)(F)c1cccc(OCCOc2ccccc2)n1", "result.units": "%", "viability at 28.5 h, 10 µM": 87.7}
{"compound": "CCCn1nc(C)cc1NC(=O)c1ncoc1-c1ccc(F)cc1", "result.units": "%", "viability at 28.5 h, 10 µM": 88.7}
{"compound": "O=C(Nc1ccccc1)[C@H]1CN2CCC1C[C@@H]2Cn1cc(C2(O)CCCC2)nn1 (stereo partly shown)", "result.units": "%", "viability at 28.5 h, 10 µM": 103}
{"compound": "CCN(CC)c1nc(Cl)c(C#N)c2c1CN(C)CC2", "result.units": "%", "viability at 28.5 h, 10 µM": 99.2}
{"compound": "CCNc1cc2ccccc2c(-c2ccc(OC)c(C)c2)n1", "result.units": "%", "viability at 28.5 h, 10 µM": 86}
{"compound": "CCOC(=O)CNS(=O)(=O)c1ccc(F)cc1", "result.units": "%", "viability at 28.5 h, 10 µM": 92.3}

----------
- protocol.notes: in vitro
- Design: Viability of infected HeLa host cells, resazurin conversion, bulk resorufin fluorescence relative to DMSO
- condition.label: human, hela cells; bulk resorufin, mean of 2

{"molecule": "FC(F)(F)CCN1CCC2(CC1)NCCc1c2[nH]c2ccc(Cl)cc12", "viability at 28.5 h, 1 µM / %": 98.2}
{"molecule": "CCOC(=O)c1c(C)n(-c2ccc(C)cc2)c2ccc(O)c(CN(C)C)c12 [CBK263499C]", "viability at 28.5 h, 1 µM / %": 101}
{"molecule": "O=[N+]([O-])c1ccc2[nH]c3c(c2c1)CCCC3NC1CCN(CCc2ccccc2)CC1 (stereo not drawn)", "viability at 28.5 h, 1 µM / %": 91.5}
{"molecule": "CCc1nnc(NS(=O)(=O)c2ccc(NC(=O)COc3ccc(Cl)cc3Cl)cc2)s1", "viability at 28.5 h, 1 µM / %": 104}
{"molecule": "Cc1cccc(-c2ccc(CC3(C(N)=O)CCN(C(=O)CCc4ccccc4)CC3)cc2)c1", "viability at 28.5 h, 1 µM / %": 91.6}
{"molecule": "O=[N+]([O-])c1ccc(-n2cnc3ccccc32)c([N+](=O)[O-])c1", "viability at 28.5 h, 1 µM / %": 107}
{"molecule": "Cc1noc(NS(=O)(=O)c2ccc(NC(=O)COc3ccccc3Br)cc2)c1C", "viability at 28.5 h, 1 µM / %": 96.5}
{"molecule": "CC(=O)NC[C@H]1CN(c2ccc3c(c2)CCN(C(=O)Oc2ccccc2)CC3)C(=O)O1", "viability at 28.5 h, 1 µM / %": 98.7}
{"molecule": "O=C(CC1CCN(CCc2ccccc2)CC1)Nc1cccc(-n2cccn2)c1", "viability at 28.5 h, 1 µM / %": 91.7}
